- Test system: S. aureus UBMS 88-5 (tetM)
- ASSAY DETAILS: MIC, agar dilution
- Type: cell-based
- ASSAY SETUP: S. aureus UBMS 88-5 (tetM)
Quick list: MIC per entry.

COMPOUND	MIC
CN(C)c1cc(NS(=O)(=O)c2ccc([N+](=O)[O-])cc2)c(O)c2c1CC1CC3C(N(C)C)C(O)=C(C(N)=O)C(=O)C3(O)C(O)=C1C2=O (stereo not shown)	0.12 µg/mL
CN(C)c1cc(NC(=O)c2ccc([N+](=O)[O-])cc2)c(O)c2c1CC1CC3C(N(C)C)C(O)=C(C(N)=O)C(=O)C3(O)C(O)=C1C2=O (stereo not shown)	2 µg/mL
CC(=O)Nc1nc(C)c(S(=O)(=O)Nc2cc(N(C)C)c3c(c2O)C(=O)C2=C(O)C4(O)C(=O)C(C(N)=O)=C(O)C(N(C)C)C4CC2C3)s1 (stereo not shown)	16 µg/mL
CN(C)CC(=O)Nc1cc(N(C)C)c2c(c1O)C(=O)C1=C(O)C3(O)C(=O)C(C(N)=O)=C(O)C(N(C)C)C3CC1C2.O=S(=O)(O)O (stereo not shown)	0.12 µg/mL
CN(C)c1cc(N(C)C)c2c(c1O)C(=O)C1=C(O)C3(O)C(=O)C(C(N)=O)=C(O)C(N(C)C)C3CC1C2 (stereo not shown)	0.12 µg/mL
CN(C)c1cc(NC=O)c(O)c2c1CC1CC3C(N(C)C)C(O)=C(C(N)=O)C(=O)C3(O)C(O)=C1C2=O (stereo not shown)	0.03 µg/mL
Cc1ccccc1C(=O)Nc1cc(N(C)C)c2c(c1O)C(=O)C1=C(O)C3(O)C(=O)C(C(N)=O)=C(O)C(N(C)C)C3CC1C2 (stereo not shown)	4 µg/mL
CN(C)c1cc(NC(=O)C(F)(F)F)c(O)c2c1C[C@H]1C[C@H]3[C@H](N(C)C)C(O)=C(C(N)=O)C(=O)[C@@]3(O)C(O)=C1C2=O.O=S(=O)(O)O	16 µg/mL
CN(C)c1cc(NS(=O)(=O)c2ccc(Cl)cc2)c(O)c2c1CC1CC3C(N(C)C)C(O)=C(C(N)=O)C(=O)C3(O)C(O)=C1C2=O (stereo not shown)	0.12 µg/mL
CN(C)c1cc(NC(=O)c2ccccc2)c(O)c2c1CC1CC3C(N(C)C)C(O)=C(C(N)=O)C(=O)C3(O)C(O)=C1C2=O (stereo not shown)	4 µg/mL
CN(C)c1cc(NC(=O)c2cccs2)c(O)c2c1CC1CC3C(N(C)C)C(O)=C(C(N)=O)C(=O)C3(O)C(O)=C1C2=O (stereo not shown)	8 µg/mL
CN(C)c1ccc(C(=O)Nc2cc(N(C)C)c3c(c2O)C(=O)C2=C(O)[C@]4(O)C(=O)C(C(N)=O)=C(O)[C@@H](N(C)C)[C@@H]4C[C@@H]2C3)cc1	32 µg/mL
CN(C)c1cc(NS(=O)(=O)c2ccccc2)c(O)c2c1CC1CC3C(N(C)C)C(O)=C(C(N)=O)C(=O)C3(O)C(O)=C1C2=O (stereo not shown)	4 µg/mL
COC(=O)Nc1cc(N(C)C)c2c(c1O)C(=O)C1=C(O)[C@]3(O)C(=O)C(C(N)=O)=C(O)[C@@H](N(C)C)C3CC1C2 (stereo partly shown)	0.25 µg/mL
CC(=O)OCC(=O)Nc1cc(N(C)C)c2c(c1O)C(=O)C1=C(O)[C@]3(O)C(=O)C(C(N)=O)=C(O)[C@@H](N(C)C)[C@@H]3C[C@@H]1C2	0.25 µg/mL
CCN(CC)c1cc(NC=O)c(O)c2c1C[C@H]1C[C@H]3[C@H](N(C)C)C(O)=C(C(N)=O)C(=O)[C@@]3(O)C(O)=C1C2=O.O=S(=O)(O)O.O=S(=O)(O)O	0.25 µg/mL
CCN(CC)c1cc(NC(C)=O)c(O)c2c1CC1CC3C(N(C)C)C(O)=C(C(N)=O)C(=O)C3(O)C(O)=C1C2=O (stereo not shown)	0.5 µg/mL
CN(C)c1cc(NC(=O)c2ccc(N)cc2)c(O)c2c1CC1CC3C(N(C)C)C(O)=C(C(N)=O)C(=O)C3(O)C(O)=C1C2=O.O=S(=O)(O)O (stereo not shown)	8 µg/mL
CN(C)c1cc(NC(=O)c2ccccc2F)c(O)c2c1CC1CC3C(N(C)C)C(O)=C(C(N)=O)C(=O)C3(O)C(O)=C1C2=O (stereo not shown)	2 µg/mL
CN(C)c1cc(NC(=O)c2c(F)c(F)c(F)c(F)c2F)c(O)c2c1CC1CC3C(N(C)C)C(O)=C(C(N)=O)C(=O)C3(O)C(O)=C1C2=O (stereo not shown)	4 µg/mL
CC(=O)Nc1cc(I)c2c(c1O)C(=O)C1=C(O)C3(O)C(=O)C(C(N)=O)=C(O)C(N(C)C)C3CC1C2.O=S(=O)(O)O (stereo not shown)	1 µg/mL
CC(=O)Nc1cc(N(C)C)c2c(c1O)C(=O)C1=C(O)[C@]3(O)C(=O)C(C(N)=O)=C(O)[C@@H](N(C)C)[C@@H]3C[C@@H]1C2	0.12 µg/mL
